Test: Cytotoxicity against human MT2 cells by XTT assay
Assay type: cell-based
Listed compounds paired with reported CC50
result_type: CC50 (µM)

INSERT INTO results (smiles_representation, relation_symbol, recorded_number) VALUES
  ('O=C(O)c1cccc(-c2ccc(/C=C3\NC(=O)N(CCc4ccccc4)C3=O)[nH]2)c1', '=', 75.2),
  ('O=C(O)c1cc(-c2ccc(/C=C3\CC(=O)N(CCc4ccccc4)C3=O)o2)ccc1Cl', '=', 118),
  ('O=C(O)c1cccc(-c2ccc(/C=C3\CC(=O)N(CCc4ccccc4)C3=O)[nH]2)c1', '=', 127),
  ('O=C(O)c1cc(-c2ccc(/C=C3\OC(=S)N(CCc4ccccc4)C3=O)o2)ccc1Cl', '=', 282),
  ('O=C(O)c1cc(-c2ccc(/C=C3\CC(=O)N(CCc4ccccc4)C3=O)[nH]2)ccc1Cl', '=', 74.1),
  ('O=C(O)c1cc(-c2ccc(/C=C3\NC(=O)N(CCc4ccccc4)C3=O)o2)ccc1Cl', '=', 78.5),
  ('O=C(O)c1cc(-c2ccc(/C=c3\sc4nc(=O)c(-c5ccccc5)nn4c3=O)o2)ccc1Cl', '>', 320),
  ('O=C(O)c1cc(-c2ccc(/C=C3\SC(=O)N(CCc4ccccc4)C3=O)o2)ccc1Cl', '=', 68.2),
  ('O=C(O)c1cc(-c2ccc(/C=C3\SC(=S)N(CCc4ccccc4)C3=O)o2)ccc1Cl', '=', 20.3);
